Test system: Candida guilliermondii ATCC 34134
RUN_DESCRIPTION: CLSI broth microdilution (M27-A3) MIC
Type: cell-based
MEASUREMENT_CONDITIONS: Meyerozyma guilliermondii, ATCC34134; 48 h, 50% reduction in growth
*1 amine or outer side, *2 acyl side, *3 side chain or, on linkers, in order; H or OH if unused. Where a SMILES comes first, the peptide text is derived from it. Bridges are numbered along the chain shown (N, C = ends). [ ]: non-standard residue; d: D form. The star is where a group is joined. Orn(4R-OH,5R-OCH2CH2NMe3+) = C[N+](C)(C)CCO[C@@H](N[*:3])[C@H](O)C[C@H](N[*:1])C(=O)[*:2]; pTerphenylCO(4''-OnC5H11) = CCCCCOc1ccc(-c2ccc(-c3ccc(C(=O)*)cc3)cc2)cc1; Orn(4R-OH,5R-OH) = O=C([C@H](C[C@@H](O)[C@@H](O)N[*:3])N[*:1])[*:2]; hTyr(3S-OH,4S-OH) = N[C@H](C(=O)O)[C@H](O)[C@@H](O)c1ccc(O)cc1; Pro(3S-OH,4S-Me) = C[C@H]1CN[C@H](C(=O)O)[C@H]1O; Hyp = O=C(O)[C@@H]1C[C@@H](O)CN1
Provide the reported MIC of each item.
Answers are plain numbers, in µg/mL.

COMPOUND | UNIT_TEXT | REPORTED
CCCCCOc1ccc(-c2ccc(-c3ccc(C(=O)N[C@H]4C[C@@H](O)[C@@H](O)NC(=O)[C@@H]5[C@@H](O)[C@@H](C)CN5C(=O)[C@H]([C@@H](C)O)NC(=O)[C@H]([C@H](O)[C@@H](O)c5ccc(O)cc5)NC(=O)[C@@H]5C[C@@H](O)CN5C(=O)[C@H]([C@@H](C)O)NC4=O)cc3)cc2)cc1 [Anidulafungin, anidulafungin] ({pTerphenylCO(4''-OnC5H11)}-[Orn(4R-OH,5R-OH)]T[Hyp][hTyr(3S-OH,4S-OH)]T[Pro(3S-OH,4S-Me)]; lactam 1-C) | µg/mL | 2

Please find the next compound below.
QUERY: MIC of CCCCCOc1ccc(-c2ccc(-c3ccc(C(=O)N[C@H]4C[C@@H](O)[C@@H](OCC[N+](C)(C)C)NC(=O)[C@@H]5[C@@H](O)[C@@H](C)CN5C(=O)[C@H]([C@@H](C)O)NC(=O)[C@H]([C@H](O)[C@@H](O)c5ccc(O)cc5)NC(=O)[C@@H]5C[C@@H](O)CN5C(=O)[C@H]([C@@H](C)O)NC4=O)cc3)cc2)cc1 [CD101] ({pTerphenylCO(4''-OnC5H11)}-[Orn(4R-OH,5R-OCH2CH2NMe3+)]T[Hyp][hTyr(3S-OH,4S-OH)]T[Pro(3S-OH,4S-Me)]; lactam 1-C) on Candida guilliermondii ATCC 34134?
RESULT: 2

----------
Tested on: Aspergillus fumigatus ATCC MYA-3626
RUN_DESCRIPTION: CLSI broth microdilution (M38-A2) MEC/MIC
Assay type: cell-based
MEASUREMENT_CONDITIONS: 48 h, stunted hyphal growth
*1 amine or outer side, *2 acyl side, *3 side chain or, on linkers, in order; H or OH if unused. Where a SMILES comes first, the peptide text is derived from it. Bridges are numbered along the chain shown (N, C = ends). [ ]: non-standard residue; d: D form. The star is where a group is joined. Orn(4R-OH,5R-OCH2CH2NMe3+) = C[N+](C)(C)CCO[C@@H](N[*:3])[C@H](O)C[C@H](N[*:1])C(=O)[*:2]; pTerphenylCO(4''-OnC5H11) = CCCCCOc1ccc(-c2ccc(-c3ccc(C(=O)*)cc3)cc2)cc1; Orn(4R-OH,5R-OH) = O=C([C@H](C[C@@H](O)[C@@H](O)N[*:3])N[*:1])[*:2]; hTyr(3S-OH,4S-OH) = N[C@H](C(=O)O)[C@H](O)[C@@H](O)c1ccc(O)cc1; Pro(3S-OH,4S-Me) = C[C@H]1CN[C@H](C(=O)O)[C@H]1O; Hyp = O=C(O)[C@@H]1C[C@@H](O)CN1
REPORTED_METRIC: MEC

Recorded MEC, per entry:
COMPOUND | REPORTED_METRIC | REPORTED
CCCCCOc1ccc(-c2ccc(-c3ccc(C(=O)N[C@H]4C[C@@H](O)[C@@H](O)NC(=O)[C@@H]5[C@@H](O)[C@@H](C)CN5C(=O)[C@H]([C@@H](C)O)NC(=O)[C@H]([C@H](O)[C@@H](O)c5ccc(O)cc5)NC(=O)[C@@H]5C[C@@H](O)CN5C(=O)[C@H]([C@@H](C)O)NC4=O)cc3)cc2)cc1 [Anidulafungin, anidulafungin] ({pTerphenylCO(4''-OnC5H11)}-[Orn(4R-OH,5R-OH)]T[Hyp][hTyr(3S-OH,4S-OH)]T[Pro(3S-OH,4S-Me)]; lactam 1-C) | MEC | ≤0.015 µg/mL
CC[C@H](C)C[C@H](C)CCCCCCCCC(=O)N[C@H]1C[C@@H](O)[C@@H](NCCN)NC(=O)[C@@H]2[C@@H](O)CCN2C(=O)[C@H]([C@H](O)CCN)NC(=O)[C@H]([C@H](O)[C@@H](O)c2ccc(O)cc2)NC(=O)[C@@H]2C[C@@H](O)CN2C(=O)[C@H]([C@@H](C)O)NC1=O [Caspofungin, caspofungin] | MEC | 0.125 µg/mL
CCCCCOc1ccc(-c2ccc(-c3ccc(C(=O)N[C@H]4C[C@@H](O)[C@@H](OCC[N+](C)(C)C)NC(=O)[C@@H]5[C@@H](O)[C@@H](C)CN5C(=O)[C@H]([C@@H](C)O)NC(=O)[C@H]([C@H](O)[C@@H](O)c5ccc(O)cc5)NC(=O)[C@@H]5C[C@@H](O)CN5C(=O)[C@H]([C@@H](C)O)NC4=O)cc3)cc2)cc1 [CD101] ({pTerphenylCO(4''-OnC5H11)}-[Orn(4R-OH,5R-OCH2CH2NMe3+)]T[Hyp][hTyr(3S-OH,4S-OH)]T[Pro(3S-OH,4S-Me)]; lactam 1-C) | MEC | ≤0.015 µg/mL

Please find the next compound below.
QUERY: MEC of CCCCCOc1ccc(-c2ccc(-c3ccc(C(=O)N[C@H]4C[C@@H](O)[C@@H](NCC[N+](C)(C)C)NC(=O)[C@@H]5[C@@H](O)[C@@H](C)CN5C(=O)[C@H]([C@@H](C)O)NC(=O)[C@H]([C@H](O)[C@@H](O)c5ccc(O)cc5)NC(=O)[C@@H]5C[C@@H](O)CN5C(=O)[C@H]([C@@H](C)O)NC4=O)cc3)cc2)cc1 [Compound 6] on Aspergillus fumigatus ATCC MYA-3626?
RESULT: ≤0.015 µg/mL

----------
Tested on: Aspergillus niger ATCC 16888
RUN_DESCRIPTION: CLSI broth microdilution (M38-A2) MEC/MIC
Format: cell-based
MEASUREMENT_CONDITIONS: 48 h, stunted hyphal growth
*1 amine or outer side, *2 acyl side, *3 side chain or, on linkers, in order; H or OH if unused. Where a SMILES comes first, the peptide text is derived from it. Bridges are numbered along the chain shown (N, C = ends). [ ]: non-standard residue; d: D form. The star is where a group is joined. Orn(4R-OH,5R-OCH2CH2NMe3+) = C[N+](C)(C)CCO[C@@H](N[*:3])[C@H](O)C[C@H](N[*:1])C(=O)[*:2]; pTerphenylCO(4''-OnC5H11) = CCCCCOc1ccc(-c2ccc(-c3ccc(C(=O)*)cc3)cc2)cc1; Orn(4R-OH,5R-OH) = O=C([C@H](C[C@@H](O)[C@@H](O)N[*:3])N[*:1])[*:2]; hTyr(3S-OH,4S-OH) = N[C@H](C(=O)O)[C@H](O)[C@@H](O)c1ccc(O)cc1; Pro(3S-OH,4S-Me) = C[C@H]1CN[C@H](C(=O)O)[C@H]1O; Hyp = O=C(O)[C@@H]1C[C@@H](O)CN1
Provide the reported MEC of each item.

Recorded MEC, per entry:
COMPOUND | MEC
CCCCCOc1ccc(-c2ccc(-c3ccc(C(=O)N[C@H]4C[C@@H](O)[C@@H](O)NC(=O)[C@@H]5[C@@H](O)[C@@H](C)CN5C(=O)[C@H]([C@@H](C)O)NC(=O)[C@H]([C@H](O)[C@@H](O)c5ccc(O)cc5)NC(=O)[C@@H]5C[C@@H](O)CN5C(=O)[C@H]([C@@H](C)O)NC4=O)cc3)cc2)cc1 [Anidulafungin, anidulafungin] ({pTerphenylCO(4''-OnC5H11)}-[Orn(4R-OH,5R-OH)]T[Hyp][hTyr(3S-OH,4S-OH)]T[Pro(3S-OH,4S-Me)]; lactam 1-C) | ≤0.015 µg/mL
CCCCCOc1ccc(-c2ccc(-c3ccc(C(=O)N[C@H]4C[C@@H](O)[C@@H](OCC[N+](C)(C)C)NC(=O)[C@@H]5[C@@H](O)[C@@H](C)CN5C(=O)[C@H]([C@@H](C)O)NC(=O)[C@H]([C@H](O)[C@@H](O)c5ccc(O)cc5)NC(=O)[C@@H]5C[C@@H](O)CN5C(=O)[C@H]([C@@H](C)O)NC4=O)cc3)cc2)cc1 [CD101] ({pTerphenylCO(4''-OnC5H11)}-[Orn(4R-OH,5R-OCH2CH2NMe3+)]T[Hyp][hTyr(3S-OH,4S-OH)]T[Pro(3S-OH,4S-Me)]; lactam 1-C) | ≤0.015 µg/mL

Each compound below has a reported value. Please supply its MEC.
1. CC[C@H](C)C[C@H](C)CCCCCCCCC(=O)N[C@H]1C[C@@H](O)[C@@H](NCCN)NC(=O)[C@@H]2[C@@H](O)CCN2C(=O)[C@H]([C@H](O)CCN)NC(=O)[C@H]([C@H](O)[C@@H](O)c2ccc(O)cc2)NC(=O)[C@@H]2C[C@@H](O)CN2C(=O)[C@H]([C@@H](C)O)NC1=O
2. CCCCCOc1ccc(-c2ccc(-c3ccc(C(=O)N[C@H]4C[C@@H](O)[C@@H](NCC[N+](C)(C)C)NC(=O)[C@@H]5[C@@H](O)[C@@H](C)CN5C(=O)[C@H]([C@@H](C)O)NC(=O)[C@H]([C@H](O)[C@@H](O)c5ccc(O)cc5)NC(=O)[C@@H]5C[C@@H](O)CN5C(=O)[C@H]([C@@H](C)O)NC4=O)cc3)cc2)cc1

RESULT:
0.06 µg/mL
≤0.015 µg/mL
